# STUDY SYSTEM: FKBP12 (Homo sapiens)
# Sequence (P62942 whole entry, species assumed): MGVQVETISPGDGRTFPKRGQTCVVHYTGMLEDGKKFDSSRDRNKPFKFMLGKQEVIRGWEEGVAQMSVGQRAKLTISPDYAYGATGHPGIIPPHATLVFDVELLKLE
# METHOD: Ki test procedure: inhibition of peptidyl-prolyl isomerase (rotamase) activity, chymotrypsin-coupled assay
# Format: biochemical
# TEST CONTEXT: apparent Ki, rotamase inhibition
RECORDED ENDPOINT: Ki (nM)
Supply the numeric figure in nM, leaving out any unit text.

Q. Quick one: Ki for CCC(C)(C)C(=O)C(=O)N1CCCCC1C(=O)SCCCc1ccc2ccccc2c1 (stereo not shown) ?
A. 261
